target: TLR8 (Homo sapiens); construct: Human peripheral blood mononuclear cells (PBMCs) consist of lymphocytes, monocytes and dendritic cells that express TLR7, TLR8 and TLR9; endogenous in cells; assay: TLR8 human peripheral blood mononuclear cell (PBMC) cell-based assay; details: human PBMCs; 1 h with antagonist, then TLR8 agonist Compound A 800 nM for 6 h; cytokines (TNFa and IL12p40) in supernatant; read-out: TLR-8 EC50
Sequence (Q9NR97 27-1041): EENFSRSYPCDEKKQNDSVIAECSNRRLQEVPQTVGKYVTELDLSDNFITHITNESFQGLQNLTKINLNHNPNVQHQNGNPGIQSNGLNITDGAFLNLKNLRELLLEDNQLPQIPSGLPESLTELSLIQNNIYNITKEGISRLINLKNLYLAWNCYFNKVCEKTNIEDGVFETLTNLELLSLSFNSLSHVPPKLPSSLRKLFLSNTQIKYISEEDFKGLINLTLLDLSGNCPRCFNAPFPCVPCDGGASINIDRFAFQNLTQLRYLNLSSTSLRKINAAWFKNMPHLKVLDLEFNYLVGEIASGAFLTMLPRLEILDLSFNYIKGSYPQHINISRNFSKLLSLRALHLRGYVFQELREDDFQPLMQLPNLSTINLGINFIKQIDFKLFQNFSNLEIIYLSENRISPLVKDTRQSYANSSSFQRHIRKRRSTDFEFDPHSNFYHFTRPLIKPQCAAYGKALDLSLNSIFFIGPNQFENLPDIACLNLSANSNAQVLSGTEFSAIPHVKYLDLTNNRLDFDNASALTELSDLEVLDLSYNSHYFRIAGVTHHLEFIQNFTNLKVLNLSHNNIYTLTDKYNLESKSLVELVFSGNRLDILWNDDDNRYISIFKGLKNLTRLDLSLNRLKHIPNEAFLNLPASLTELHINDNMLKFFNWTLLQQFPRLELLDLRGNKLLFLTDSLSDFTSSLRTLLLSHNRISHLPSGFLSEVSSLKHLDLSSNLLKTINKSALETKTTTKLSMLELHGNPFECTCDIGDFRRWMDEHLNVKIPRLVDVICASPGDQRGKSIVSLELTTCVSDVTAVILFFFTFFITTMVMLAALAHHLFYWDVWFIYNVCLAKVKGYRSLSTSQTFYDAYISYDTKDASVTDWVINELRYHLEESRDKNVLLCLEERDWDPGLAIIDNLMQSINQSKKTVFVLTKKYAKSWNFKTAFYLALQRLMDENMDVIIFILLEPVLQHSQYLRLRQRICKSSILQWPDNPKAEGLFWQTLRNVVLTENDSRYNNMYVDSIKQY
EC50 vs 5 nM: less than gives Met; not less than gives Not met.

These solved cases illustrate the format of a correct answer.
In [3]: df
Out[3]:
                                   compound  qualitativelabel
0  Cc1c([C@@H]2C[C@@H]3C[C@H]2CN3CC(N)=O)sc2[nH]c(-c3cn4ncnc4c4c3COC4)c(C(C)C)c12               Met
1  Cc1nc2c3c(c(-c4[nH]c5sc(C6CCN(CC(N)=O)CC6)c(C)c5c4C(C)C)cn2n1)COC3           Not met
2  Cc1c(C2CCN(S(=O)(=O)N3CCNCC3)CC2)sc2[nH]c(-c3cn4ncnc4c4c3CCC4)c(C(C)C)c12               Met
3  Cc1c(C2CC3CCC(C2)N3CC(N)=O)sc2[nH]c(-c3cn4ncnc4c4c3CCC4)c(C(C)C)c12 (centres unmarked)               Met

### Prompt Is EC50 of Cc1nc2c3c(c(-c4[nH]c5sc(C6CCN(C(=O)[C@H]7COCCN7)CC6)c(C)c5c4C(C)C)cn2n1)COC3 strictly below 5 nM?
### Response Not met

### Prompt Is EC50 of Cc1c(C2CCN(C(=O)C3(N4CCOCC4)CC3)CC2)sc2[nH]c(-c3cn4ncnc4c4c3CCC4)c(C(C)C)c12 strictly below 5 nM?
### Response Not met

### Prompt Is EC50 of CO[C@H]1CN[C@@H](C(=O)N2CCC(c3sc4[nH]c(-c5cn6ncnc6c6c5CCC6)c(C(C)C)c4c3C)CC2)C1 strictly below 5 nM?
### Response Met
